Test: recombinant barcode read abundance after kanamycin selection (control-corrected) (log10(CPM+1)); higher = more efficient recombination; sequences stand for … in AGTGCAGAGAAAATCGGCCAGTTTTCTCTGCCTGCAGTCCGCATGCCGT…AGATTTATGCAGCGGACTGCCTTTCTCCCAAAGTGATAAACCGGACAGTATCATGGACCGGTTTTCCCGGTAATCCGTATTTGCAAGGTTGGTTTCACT; site = the 11-nt target
Note to self: class = bucket of recombinant barcode read abundance (log10), per low-valued = under 0.1, mid-valued = from 0.1 up to 1, high-valued = 1 and over

{"monomerSequence": "AGAGAGGCTTGGGTTCTAACCTGTTGCGG (site AGAGAGGCTCC)", "groupLabel": "high-valued"}
{"monomerSequence": "GATCGATCTTGGGTTCTAACCTGTTGCAT (site GATCGATCTAA)", "groupLabel": "low-valued"}
{"monomerSequence": "CACTGGACTTGGGTTCTAACCTGTTGCCT (site CAATGGACTAG)", "groupLabel": "mid-valued"}
{"monomerSequence": "TAGCTCACTTGGGTTCTAACCTGTTGCAT (site TAGTTCACTAT)", "groupLabel": "mid-valued"}

Which category does the recorded recombinant barcode read abundance (log10) put CAGGCGTCTTGGGTTCTAACCTGTTGCAC (site GAGGGGTCTGT) in?
mid-valued

// repeat for CAGGGCCCTTGGGTTCTAACCTGTTGCCT (site CAGGGCCCTAG) and report
high-valued

// repeat for AGTTGGCCTTGGGTTCTAACCTGTTGCGA (site CCACCTTCTAG) and report
mid-valued

###

Assay: recombinant barcode read abundance after kanamycin selection (control-corrected) (log10(CPM+1)); higher = more efficient recombination; sequences stand for … in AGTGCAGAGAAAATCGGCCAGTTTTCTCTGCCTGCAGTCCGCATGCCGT…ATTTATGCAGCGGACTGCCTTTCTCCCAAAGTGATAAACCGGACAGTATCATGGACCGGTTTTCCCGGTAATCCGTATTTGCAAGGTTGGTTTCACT; site = the 11-nt target
Returns one of true (1) or false (0); true (1) when recombinant barcode read abundance (log10) is >= 0.2.

Example cases with answers are listed next.
{"monomerSequence": "GAGCCCATTTGGGTTCTAACCTGTTGCCTAG [GAGCCCACTAG_LTGcore_TT_RTGcore_CT] (site GAGCCCACTAG) (LTG core: TT, RTG core: CT)", "groupLabel": "false (0)"}
{"monomerSequence": "GAGTCCAATTGGGTTCTAACCTGTTGCGTAT [GAGTCCACTAC_LTGcore_AT_RTGcore_AT] (site GAGTCCACTAC) (LTG core: AT, RTG core: AT)", "groupLabel": "false (0)"}
{"monomerSequence": "TCTACCCAATGGGTTCTAACCTGTTGCTGAG [TCTACCCCTCA_LTGcore_AA_RTGcore_CT] (site TCTACCCCTCA) (LTG core: AA, RTG core: CT)", "groupLabel": "false (0)"}
{"monomerSequence": "CGCGCCCCTTGGGTTCTAACCTGTTGCGGCC [CGCGCCCCTCC_LTGcore_CT_RTGcore_GG] (site CGCGCCCCTCC) (LTG core: CT, RTG core: GG)", "groupLabel": "true (1)"}
{"monomerSequence": "ACGGGACCGTGGGTTCTAACCTGTTGCAGCG [ACGGGACCTCT_LTGcore_CG_RTGcore_CG] (site ACGGGACCTCT) (LTG core: CG, RTG core: CG)", "groupLabel": "false (0)"}

# bool: recombinant barcode read abundance (log10) of GAGGCCTCTTGGGTTCTAACCTGTTGCCACA [GAGGCCTCTTG_LTGcore_CT_RTGcore_TG] (site GAGGCCTCTTG) (LTG core: CT, RTG core: TG) >= 0.2
true (1)

// repeat for GGGAGCCCTTGGGTTCTAACCTGTTGCTGGA [GGGAGCCCTCA_LTGcore_CT_RTGcore_TC] (site GGGAGCCCTCA) (LTG core: CT, RTG core: TC) and report
false (0)

// repeat for AGGAGGTTCTGGGTTCTAACCTGTTGCCTAG [AGGAGGTCTAG_LTGcore_TC_RTGcore_CT] (site AGGAGGTCTAG) (LTG core: TC, RTG core: CT) and report
false (0)

// repeat for AGGCGGGCCTGGGTTCTAACCTGTTGCGGAG [AGGCGGGCTCC_LTGcore_CC_RTGcore_CT] (site AGGCGGGCTCC) (LTG core: CC, RTG core: CT) and report
true (1)

// repeat for TGATACCCCTGGGTTCTAACCTGTTGCGTAG [TGATACCCTAC_LTGcore_CC_RTGcore_CT] (site TGATACCCTAC) (LTG core: CC, RTG core: CT) and report
true (1)

// repeat for TGATACCTTTGGGTTCTAACCTGTTGCGTAA [TGATACCCTAC_LTGcore_TT_RTGcore_TT] (site TGATACCCTAC) (LTG core: TT, RTG core: TT) and report
false (0)

###

Experiment: recombinant barcode read abundance after kanamycin selection (control-corrected) (log10(CPM+1)); higher = more efficient recombination; sequences stand for … in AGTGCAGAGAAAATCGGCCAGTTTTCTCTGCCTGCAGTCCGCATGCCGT…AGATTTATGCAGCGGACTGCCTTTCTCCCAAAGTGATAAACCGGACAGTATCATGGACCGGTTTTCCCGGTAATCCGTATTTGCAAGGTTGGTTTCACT; site = the 11-nt target
Returns one of criterion met or criterion not met; criterion met when recombinant barcode read abundance (log10) is >= 0.09.

{"monomerSequence": "AGCTTAGCTTGGGTTCTAACCTGTTGCCG (site AGCTTAGCTAG)", "groupLabel": "criterion met"}
{"monomerSequence": "TTGGATACTTGGGTTCTAACCTGTTGCCA (site CATCTACCTCC)", "groupLabel": "criterion met"}

# bool: recombinant barcode read abundance (log10) of GGATCCACTTGGGTTCTAACCTGTTGCCA (site GGATACACTTG) >= 0.09
criterion not met

###

Experiment: recombinant UMI read abundance after kanamycin selection (control-corrected) (log10(CPM+1)); higher = more efficient recombination; extreme values may be limits of the assay; sequences stand for … in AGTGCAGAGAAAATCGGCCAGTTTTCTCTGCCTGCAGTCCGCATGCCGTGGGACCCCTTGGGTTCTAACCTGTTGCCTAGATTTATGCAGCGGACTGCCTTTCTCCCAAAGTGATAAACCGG…AGGTTGGTTTCACT; site = the 11-nt donor
Reported recombinant UMI read abundance (log10) values follow for various sequences
Format: numeric value only, no unit, no commentary.

Look over these answered cases.
{"monomerSequence": "AAAGTGTCATGGACCGGTTTTCCCGGTAATCCGTATTTGAC (site AAGGTGTCTGT)", "outcomeMeasure": "recombinant UMI read abundance (log10)", "quantitativeResult": 0}
{"monomerSequence": "ACTCGTGCATGGACCGGTTTTCCCGGTAATCCGTATTTGGT (site ACTGGTGCTAC)", "outcomeMeasure": "recombinant UMI read abundance (log10)", "quantitativeResult": 0.222}
{"monomerSequence": "TGACACCCATGGACCGGTTTTCCCGGTAATCCGTATTTGAA (site TGACACCCTTT)", "outcomeMeasure": "recombinant UMI read abundance (log10)", "quantitativeResult": 0.0711}
{"monomerSequence": "GCTCGAGCATGGACCGGTTTTCCCGGTAATCCGTATTTGCA (site GTTCGAGCTTG)", "outcomeMeasure": "recombinant UMI read abundance (log10)", "quantitativeResult": 0.655}
{"monomerSequence": "CCGAAAGCATGGACCGGTTTTCCCGGTAATCCGTATTTGAT (site CCTAAAGCTAT)", "outcomeMeasure": "recombinant UMI read abundance (log10)", "quantitativeResult": 0.0026}

I am curious: what recombinant UMI read abundance (log10) value has been reported for AGTACTACATGGACCGGTTTTCCCGGTAATCCGTATTTGAC (site AGTACTACTGT) ?
1.28

// repeat for TTCTTGACATGGACCGGTTTTCCCGGTAATCCGTATTTGCT (site TCCTTGACTAG) and report
0.513

// repeat for GGGCCACCATGGACCGGTTTTCCCGGTAATCCGTATTTGCA (site GGGGCACCTTG) and report
0

// repeat for CCCCTCTCATGGACCGGTTTTCCCGGTAATCCGTATTTGGG (site CCCCTCTCTCC) and report
0.0198

// repeat for CCCCCCACATGGACCGGTTTTCCCGGTAATCCGTATTTGTA (site CCCCCCACTTA) and report
0.82

// repeat for TAATGTCCATGGACCGGTTTTCCCGGTAATCCGTATTTGTA (site TAAAGTCCTTA) and report
0.459

// repeat for ACTAGAACATGGACCGGTTTTCCCGGTAATCCGTATTTGAA (site ACTAGAACTCT) and report
0

// repeat for CGTTAGACATGGACCGGTTTTCCCGGTAATCCGTATTTGAG (site CGTTAGCCTCT) and report
0.021
